Origin of the recorded values: patent US7109167

IC50 listing for selected binders.
TESTED SYSTEM: T1, NP-1/Fc (Neuropilin-1/Fc, R&D Systems)
T1 construct: Bought reagent; also called Npn-1
T1 sequence (Q9QWJ9 22-855): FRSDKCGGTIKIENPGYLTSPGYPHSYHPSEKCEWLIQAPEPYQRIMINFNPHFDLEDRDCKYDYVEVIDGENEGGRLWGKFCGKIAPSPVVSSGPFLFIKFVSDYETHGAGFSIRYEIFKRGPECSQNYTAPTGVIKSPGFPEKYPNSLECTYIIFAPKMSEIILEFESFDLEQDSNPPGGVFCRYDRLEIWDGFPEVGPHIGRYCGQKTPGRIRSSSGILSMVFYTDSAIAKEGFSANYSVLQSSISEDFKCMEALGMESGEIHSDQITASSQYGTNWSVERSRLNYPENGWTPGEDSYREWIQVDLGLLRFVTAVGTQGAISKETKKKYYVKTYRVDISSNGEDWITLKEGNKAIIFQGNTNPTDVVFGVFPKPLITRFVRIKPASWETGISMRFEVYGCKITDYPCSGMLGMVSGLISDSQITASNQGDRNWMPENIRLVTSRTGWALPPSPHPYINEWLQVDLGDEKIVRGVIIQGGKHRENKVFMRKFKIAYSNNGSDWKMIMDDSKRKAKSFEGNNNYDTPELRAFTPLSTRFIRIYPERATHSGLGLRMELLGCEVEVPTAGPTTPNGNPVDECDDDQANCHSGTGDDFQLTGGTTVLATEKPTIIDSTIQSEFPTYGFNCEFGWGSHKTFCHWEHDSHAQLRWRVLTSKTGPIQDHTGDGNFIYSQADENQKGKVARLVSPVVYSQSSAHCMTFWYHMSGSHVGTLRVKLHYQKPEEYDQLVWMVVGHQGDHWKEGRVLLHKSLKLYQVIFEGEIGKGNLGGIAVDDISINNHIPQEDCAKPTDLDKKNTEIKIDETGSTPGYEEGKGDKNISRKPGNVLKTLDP
ASSAY METHOD TEXT: fluorescence polarization competition against labeled BRU-326 on NP-1/Fc
No end group written: not given here.
Use µM as the unit, but write only the number.

TKPPR-OH (also called BRU-95; TKPPR-OH) [TKPPR (L-threonyl-L-lysyl-L-prolyl-L-prolyl-L-arginine), free monomeric peptide] = 80

Now look at this entry.
Look at this binder and give its reported IC50. VEGF165 (ligand, UniProt P15692-4 27-191, looked up, 125I label on the radioligand form, Labelled and unlabelled forms and the different suppliers are kept as one molecule; also called unlabeled VEGF165) APMAEGGGQNHHEVVKFMDVYQRSYCHPIETLVDIFQEYPDEIEYIFKPSCVPLMRCGGCCNDEGLECVPTEESNITMQIMRIKPHQGQHIGEMSFLQHNKCECRPKKDRARQENPCGPCSERRKHLFVQDPQTCKCSCKNTDSRCKARQLELNERTCRCDKPRR
0.2
